System: Mycosphaerella graminicola; Anamorph: Septoria tritici; Bayer Code SEPTTR
Assay: Leaf blotch of wheat, foliar fungicide treatment, one day protectant (1DP) or three day curative (3DC)
Type: in vivo, Septoria tritici on wheat plants (variety Yuma)
Conditions: Zymoseptoria tritici, 24 h, one day protectant (1DP), 25 ppm, rating of percent disease control, read-out: SETTTR 1DP 25 ppm
assay-metric: pest or weed control at 25 ppm

Let me check: CN1CCCC/C1=N\c1nc(OCc2cccs2)ncc1F , system Mycosphaerella graminicola; Anamorph: Septoria tritici; Bayer Code SEPTTR, measured pest or weed control at 25 ppm is 76 to 100%

I looked up Nc1nc(OC(c2ccc(F)cc2)c2ccc(F)cc2)ncc1F and its pest or weed control at 25 ppm for Mycosphaerella graminicola; Anamorph: Septoria tritici; Bayer Code SEPTTR was 76 to 100%

Recorded pest or weed control at 25 ppm for O=C(Cc1ccccc1)Nc1nc(OCc2cccs2)ncc1F on Mycosphaerella graminicola; Anamorph: Septoria tritici; Bayer Code SEPTTR was 76 to 100%

The value of pest or weed control at 25 ppm recorded for CC(Oc1ncc(F)c(/N=C2\CCCCN2C)n1)c1ccc(F)cc1 (centres unmarked) when tested on Mycosphaerella graminicola; Anamorph: Septoria tritici; Bayer Code SEPTTR reads 51 to 75%

Case CC(C)C(=O)Oc1ncc(F)c(/N=C/N(C)C)n1 , Mycosphaerella graminicola; Anamorph: Septoria tritici; Bayer Code SEPTTR, pest or weed control at 25 ppm recorded as 76 to 100%

The compound Fc1cccc(COc2ncc(F)c(NCOCc3ccccc3)n2)c1 on Mycosphaerella graminicola; Anamorph: Septoria tritici; Bayer Code SEPTTR: pest or weed control at 25 ppm was 0 to 25%

Field pest or weed control at 25 ppm (Mycosphaerella graminicola; Anamorph: Septoria tritici; Bayer Code SEPTTR), entry COc1cccc(COc2ncc(F)c(NC(C)=S)n2)c1 : 76 to 100%

Tested on Mycosphaerella graminicola; Anamorph: Septoria tritici; Bayer Code SEPTTR: O=C(Nc1nc(OCc2ccccc2)ncc1F)OCc1ccccc1 . Observed pest or weed control at 25 ppm: 76 to 100%

---

I'd be grateful if you could share measured pest or weed control at 25 ppm for these entries.
System: Mycosphaerella graminicola; Anamorph: Septoria tritici; Bayer Code SEPTTR
Test: Leaf blotch of wheat, foliar fungicide treatment, one day protectant (1DP) or three day curative (3DC)
Assay type: in vivo, Septoria tritici on wheat plants (variety Yuma)
Conditions: Zymoseptoria tritici, 72 h, three day curative (3DC), 25 ppm, percent control rating, read-out: SEPTTR 3DC 25 ppm

Record Cc1ccc(NC(=O)Nc2nc(O)ncc2F)cc1 , field pest or weed control at 25 ppm: 51 to 75%

Reported pest or weed control at 25 ppm for C=CCOc1ncc(F)c(NNC(=O)c2ccncc2)n1 was 0 to 25%

Noted for CS(=O)(=O)Nc1nc(OCc2ccccc2)ncc1F : its pest or weed control at 25 ppm reads 0 to 25%

Summary for this compound, O=C(NCc1ccccc1F)Nc1nc(O)ncc1F : pest or weed control at 25 ppm is 26 to 50%

// sample CS(=O)(=O)Nc1nc(O)ncc1F , its pest or weed control at 25 ppm was 0 to 25%

For reference, reported pest or weed control at 25 ppm for Fc1ccc(COc2ncc(F)c(/N=N/c3ccccc3Cl)n2)cc1 stands at 0 to 25%

// CC(=O)OCOc1ncc(F)c(NC=O)n1 : pest or weed control at 25 ppm value = 76 to 100%

Noted for CCc1ccccc1NNc1nc(OCc2ccc(C)cc2)ncc1F : its pest or weed control at 25 ppm reads 0 to 25%

Item: Fc1cnc(OCc2ccccc2)nc1/N=N/c1cccc(C(F)(F)F)c1 | pest or weed control at 25 ppm: 26 to 50%

Reported pest or weed control at 25 ppm for C=CCOc1ncc(F)c(NN)n1 was 0 to 25%

---

Tested on: Venturia inaequalis; Bayer Code VENTIN
Test: Apple scab
Format: in vivo
Conditions: 24 h, % disease control rating, one day protectant, 75 ppm, read-out: VENTIN 1 DP 75 ppm
Would you mind telling me the reported pest or weed control at 75 ppm of each entry?

Lookup result for CC(Oc1ncc(F)c(/N=C/N(C)C)n1)c1ccc(F)cc1 (stereo not drawn) ; measured pest or weed control at 75 ppm: 76 to 100%

Consider COc1ccc(Oc2ncc(F)c(NC(C)=O)n2)cc1 . Its measured pest or weed control at 75 ppm is 26 to 50%

Fc1cnc(OCc2ccccc2)nc1/N=C/N1CCOCC1 has a reported pest or weed control at 75 ppm of 76 to 100%

pest or weed control at 75 ppm reading for COc1c(C)cnc(COc2ncc(F)c(N)n2)c1C : 51 to 75%

Noted for Cc1oc(-c2ccccc2)cc1COc1ncc(F)c(N)n1 : its pest or weed control at 75 ppm reads 76 to 100%

response.value for CN1CCN(CNc2nc(OCc3ccc(F)cc3)ncc2F)CC1 (field: pest or weed control at 75 ppm) = 76 to 100%

Given item Nc1nc(OCc2ccccc2N2CCOCC2)ncc1F , the value recorded as its pest or weed control at 75 ppm is 76 to 100%

The compound identified as Fc1ccc(COc2ncc(F)c(NCn3c(-c4cscn4)nc4ccccc43)n2)cc1 registered its pest or weed control at 75 ppm at 51 to 75%

// pest or weed control at 75 ppm lookup, compound = NN(c1nc(OCc2ccc(F)cc2)ncc1F)C1CCCCC1 , result: 76 to 100%

What the record says about Nc1nc(Oc2cccc(Cl)c2)ncc1F : pest or weed control at 75 ppm is 76 to 100%

Recorded pest or weed control at 75 ppm (compound CS(=O)(=O)c1ccc(COc2ncc(F)c(N)n2)cc1 ): 26 to 50%

pest or weed control at 75 ppm reading for Nc1nc(OCc2cccs2)ncc1F : 76 to 100%

Measured pest or weed control at 75 ppm of CCOC(=O)C(=O)Nc1nc(OCc2ccc(F)cc2)ncc1F : 76 to 100%

Entry Cc1ccccc1C(C)Oc1ncc(F)c(N)n1 (stereo not drawn) ; pest or weed control at 75 ppm = 51 to 75%

Measured pest or weed control at 75 ppm, Fc1ccccc1CNC(=S)Nc1nc(OCc2cccs2)ncc1F : 26 to 50%

Reported pest or weed control at 75 ppm of Cc1cc(C)c(COc2ncc(F)c(/N=C/N(C)C)n2)c(C)c1 : 26 to 50%

Reported pest or weed control at 75 ppm of CC(=O)Nc1nc(OCCNc2ccccc2)ncc1F : 76 to 100%

pest or weed control at 75 ppm reading for Fc1cnc(OC2CCCCC2)nc1NCc1ccc(Cl)nc1 : 0 to 25%

Value of pest or weed control at 75 ppm reported for the compound COc1cc(COc2ncc(F)c(N)n2)cc(Cl)n1 is 26 to 50%

Measured pest or weed control at 75 ppm of CN1CCCC1CCOc1ncc(F)c(N)n1 (stereo not drawn) : 0 to 25%

The measured pest or weed control at 75 ppm associated with Cc1ccc(COc2ncc(F)c(/N=C/N(C)C)n2)cc1 reads 76 to 100%

Looking up Cn1nc(Oc2ncc(F)c(N)n2)cc1C(F)(F)F , I found its pest or weed control at 75 ppm recorded as 26 to 50%

Per the records, this compound ( CCCCCCOc1ncc(F)c(N)n1 ) has pest or weed control at 75 ppm equal to 76 to 100%

The compound Fc1cnc(OCc2cccs2)nc1NCc1ccc2c(c1)OCO2 showed pest or weed control at 75 ppm equal to 0 to 25%

The recorded pest or weed control at 75 ppm for Nc1nc(OC2CCCc3cccnc32)ncc1F (stereo not drawn) is 76 to 100%

So for COc1ccc(COc2ncc(F)c(/N=C3\CCCCN3C)n2)cc1F , the logged pest or weed control at 75 ppm turned out to be 76 to 100%

The reported pest or weed control at 75 ppm of the compound Nc1nc(OCc2ccccc2)ncc1F was 76 to 100%

Entry under test: CN(C)/C=N/c1nc(OCc2ccc(F)cc2)ncc1F . Its pest or weed control at 75 ppm was 76 to 100%

Please fill in: pest or weed control at 75 ppm reported for Nc1nc(OCCN2CCCC2=O)ncc1F = 26 to 50%

Notebook: Cc1c(COc2ncc(F)c(N)n2)cnn1C , pest or weed control at 75 ppm read as 76 to 100%

The reported pest or weed control at 75 ppm of the compound CN(C)/C=N/c1nc(OCc2cccs2)ncc1F was 76 to 100%

The compound identified as COc1cccc(COc2ncc(F)c(NCO)n2)c1 registered its pest or weed control at 75 ppm at 76 to 100%

pest or weed control at 75 ppm for Nc1nc(OCc2cnc(Cl)c(Cl)c2)ncc1F is 76 to 100%

Reported pest or weed control at 75 ppm ( Nc1nc(OCCn2cncn2)ncc1F ) = 26 to 50%

Notebook: CN(C)/C=N/c1nc(OCCNc2ccccc2)ncc1F , pest or weed control at 75 ppm read as 51 to 75%

Input CC(C)(c1ccccc1)c1cccc(COc2ncc(F)c(N)n2)c1 . Output pest or weed control at 75 ppm: 51 to 75%

The recorded pest or weed control at 75 ppm for Cc1nc(COc2ncc(F)c(N)n2)cs1 is 76 to 100%

Record CN(C)/C=N/c1nc(OCc2ccccc2)ncc1F . Reported pest or weed control at 75 ppm: 76 to 100%

Query O=C(Nc1nc(OCc2cccc(F)c2)ncc1F)c1ccccc1 yields pest or weed control at 75 ppm of 51 to 75%

Measured pest or weed control at 75 ppm, Nc1nc(OCc2coc(Cc3ccccc3)c2)ncc1F : 76 to 100%

Input Cn1nc(C(F)(F)F)c(COc2ncc(F)c(N)n2)c1Cl . Output pest or weed control at 75 ppm: 51 to 75%

pest or weed control at 75 ppm measured on COc1ccc(COc2ncc(F)c(N)n2)cc1 = 76 to 100%
